System: rodent lifetime carcinogenesis bioassay, tumor incidence TD50
Assay: carcinogenic potency in animals, long-term in vivo studies, CPDB compilation (AID 1745844)
Conditions: mouse; strain B6C3F1; males; inhaled; site: all sites; lesion: malignant lymphoma, mixed type + malignant lymphoma; dosed 13 weeks; study length 104 weeks
QUANTITY_NAME: TD50 (mg/kg/day)
Numbers only here, please. The scale is mg/kg/day.

Q: Answer briefly: TD50 recorded on rodent lifetime carcinogenesis bioassay, tumor incidence TD50 for C=CC=C
Result: 78.1

###

Test system: rodent lifetime carcinogenesis bioassay, tumor incidence TD50
Experiment: carcinogenic potency in animals, long-term in vivo studies, CPDB compilation (AID 1745844)
Conditions: rat; strain Fischer 344; males; in drinking water; site: kidney; lesion: adenoma; dosed 110 weeks; study length 111 weeks
QUANTITY_NAME: TD50 (mg/kg/day)
Answer with a number only, understood to be in mg/kg/day.

Q: Tell me measured TD50 for [O-][Br+2]([O-])O please.
Result: 46.2

###

Test system: rodent lifetime carcinogenesis bioassay, tumor incidence TD50
Test: carcinogenic potency in animals, long-term in vivo studies, CPDB compilation (AID 1745844)
Settings: rat; strain Osborne-Mendel; both sexes; in feed; site: any site (literature study); lesion: malignant tumor; dosed 86 weeks; study length 104 weeks
Calls of active or inactive are those of the source. How the calls were made is not given here.
QUANTITY_NAME: TD50

Q: Indicate its recorded TD50; the compound in question is O=C1OC2(c3ccccc31)c1cc(I)c(O)c(I)c1Oc1c2cc(I)c(O)c1I
Result: 14100 mg/kg/day (inactive)

###

Test system: rodent lifetime carcinogenesis bioassay, tumor incidence TD50
Experiment: carcinogenic potency in animals, long-term in vivo studies, CPDB compilation (AID 1745844)
Conditions: mouse; strain B6C3F1; females; inhaled; site: liver; lesion: hepatocellular adenoma; dosed 61 weeks; study length 61 weeks
QUANTITY_NAME: TD50

Q: Please report the measured TD50 for C=CC=C
Result: 1590 mg/kg/day

###

Test system: rodent lifetime carcinogenesis bioassay, tumor incidence TD50
Test: carcinogenic potency in animals, long-term in vivo studies, CPDB compilation (AID 1745844)
Conditions: rat; strain Fischer 344; males; by gavage; site: any site (literature study); lesion: several types; types named in the paper; dosed 71 weeks; study length 71 weeks
QUANTITY_NAME: TD50 (mg/kg/day)
Express it in mg/kg/day; write the number only.

Q: Report its TD50 with rodent lifetime carcinogenesis bioassay, tumor incidence TD50 as the test system: C=C1C/C(=C/C)C(=O)O[C@@H]2CCN3CC=C(COC(=O)[C@@]1(O)CO)[C@H]23
Result: 0.0267

###

Test system: rodent lifetime carcinogenesis bioassay, tumor incidence TD50
Assay: carcinogenic potency in animals, long-term in vivo studies, CPDB compilation (AID 1745844)
Conditions: rat; strain Sas:MRC(WI)BR; males; in feed; site: mammary gland; lesion: fibroadenoma; dosed 140 weeks; study length 144 weeks
QUANTITY_NAME: TD50 (mg/kg/day)
Entry rule: numbers only, all in mg/kg/day.

Q: Tell me measured TD50 for Cc1ncc([N+](=O)[O-])n1CCO please.
Result: 2490

###

Test system: rodent lifetime carcinogenesis bioassay, tumor incidence TD50
Assay: carcinogenic potency in animals, long-term in vivo studies, CPDB compilation (AID 1745844)
Settings: rat; strain Sprague-Dawley; males; in feed; site: kidney/pelvis; lesion: one or several types; types not named; dosed 117 weeks; study length 117 weeks
QUANTITY_NAME: TD50

Q: Specify TD50 for CCOc1ccc(NC(C)=O)cc1 , system rodent lifetime carcinogenesis bioassay, tumor incidence TD50.
Result: 5470 mg/kg/day
